Data origin, for the record: the supplement of paper PMC7455731

Test: collision cross section (DTIM-MS, N2); higher = larger ion
Details: ion adduct: [M+H]+
Entries and their measured collision cross section follow.
Measurement name: collision cross section (Å²)

>>> measured_value("CCOc1cc(NC(C)=O)ccc1C(=O)OC [Ethopabate]")
151.13
>>> measured_value("Cc1ncc([N+](=O)[O-])n1C [Dimetridazole]")
127.62
>>> measured_value("NC(=O)c1cccnc1 [Nicotinamide]")
125.25
>>> measured_value("C[C@H]1C(=O)O[C@@H]2CCN3CC=C(COC(=O)[C@](C)(O)[C@]1(C)O)[C@H]23 [Crotaline]")
176.34
>>> measured_value("Cc1cc(=O)oc2cc(O)cc(O)c12 [5,7-Dihydroxy-4-methylcoumarin]")
136.89
>>> measured_value("C=CC[C@]1(O)CC[C@H]2[C@@H]3CCC4=CC(=O)CCC4=C3C=C[C@@]21C [Altrenogest]")
178.86
>>> measured_value("CCOC(=O)c1cc2ccccc2oc1=O [Ethyl coumarin-3-carboxylate]")
141.92
>>> measured_value("O=P(OCCCl)(OCCCl)OCCCl [Tris(2-chloroethyl) phosphate]")
151.08
>>> measured_value("COc1c(C=CC(=O)c2ccc(O)cc2)ccc(O)c1O [Licochalcone B]")
170.36
>>> measured_value("Nc1ccn(C[C@@H](CO)OCP(=O)(O)O)c(=O)n1 [Cidofovir]")
157.98
>>> measured_value("COc1cc(O)cc(/C=C/c2ccc(O)cc2)c1 [Pinostilbene]")
160.07
>>> measured_value("NC[C@H]1O[C@H](O[C@H]2[C@H](O)[C@@H](O[C@H]3O[C@H](CO)[C@@H](O)[C@H](N)[C@H]3O)[C@H](N)C[C@@H]2N)[C@H](N)C[C@@H]1O [Tobramycin]")
202.65
>>> measured_value("Cc1cccc(Nc2ccccc2C(=O)O)c1C [Mefenamic acid]")
154.75
>>> measured_value("C[C@H]1CC[C@]2(OC1)O[C@H]1C[C@H]3[C@@H]4CC=C5C[C@@H](O)CC[C@]5(C)[C@H]4CC[C@]3(C)[C@H]1[C@@H]2C [Diosgenin]")
209.65
>>> measured_value("CCCCCCCCOC(=O)c1ccccc1C(=O)OCCCCCCCC [DI-N-OCTYL PHTHALATE]")
211
>>> measured_value("COc1cc(C2Oc3ccc(C4Oc5cc(O)cc(O)c5C(=O)C4O)cc3OC2CO)ccc1O (stereo unspecified) [Isosilybin]")
214.42
